biological target: Fibroblast growth factor 2 (Homo sapiens) (UniProt P09038); assay: FGF2 binders on small-molecule microarrays, primary screen, biochemical, small-molecule microarray, 635/667 nm fluorescence (AID 1133); settings: small-molecule microarray binding, FGF2, fluorescence 635/667; higher = more signal
Sequence (P09038 whole entry, looked up): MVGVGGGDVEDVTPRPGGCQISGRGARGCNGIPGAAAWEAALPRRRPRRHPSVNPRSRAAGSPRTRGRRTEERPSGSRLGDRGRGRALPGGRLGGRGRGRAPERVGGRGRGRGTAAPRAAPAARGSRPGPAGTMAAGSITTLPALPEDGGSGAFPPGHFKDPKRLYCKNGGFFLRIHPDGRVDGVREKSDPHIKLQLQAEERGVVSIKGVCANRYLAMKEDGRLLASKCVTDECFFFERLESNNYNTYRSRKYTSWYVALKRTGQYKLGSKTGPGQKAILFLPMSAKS
EXPERIMENTAL ENDPOINT: composite z-score
Respond with the number and no other words.

State, in one line, measured composite z-score of CO[C@H]1COC(=O)[C@H](C)COC(=O)[C@H](Cc2ccccc2)NC(=O)CC=C[C@H]1C
0.807

State, in one line, measured composite z-score of Cc1ccc(S[C@]2(C(=O)NC(C)C)CC(=O)N(C3Cc4ccccc4C3)[C@@H]2c2ccc(CO)cc2)cc1
-0.438

State, in one line, measured composite z-score of CC(C)(C)OC(=O)CC[C@]1(C(=O)NCCN2CCOCC2)N=C(c2ccc(OCCCO)cc2)O[C@H]1c1ccccc1CN=[N+]=[N-]
-0.962

State, in one line, measured composite z-score of CCCCO[C@H]1C[C@H]2C(Br)=C[C@@]1(CO)C(=O)[C@]21CO1
0.0225

State, in one line, measured composite z-score of COC(=O)C[C@H]1O[C@]2(C(=O)N(Cc3ccccc3)c3ccc(I)cc32)[C@@H](C)[C@@H]1[Si](C)(C)c1ccc(OC)cc1
-0.222

###

tested on: Lefty1; assay: Lefty1 binders on small-molecule microarrays, primary screen, biochemical, small-molecule microarray, 635/667 nm fluorescence (AID 1139); details: small-molecule microarray binding, fluorescence 635/667; higher = more signal
What composite z-score was measured for each of the following?
Respond with the number and no other words.

State, in one line, measured composite z-score of C[N+](C)(C)CCCC[C@@H]1NC(=O)[C@H]2C[C@@H](C(=O)NCc3ccc(F)cc3)[C@@H](c3cccc(OCCO)c3)N2C1=O
1.07

State, in one line, measured composite z-score of COCCOC(=O)N1C(=O)[C@@]2(c3cc(C#CCC(C(=O)OC)C(=O)OC)ccc31)[C@H](c1ccccc1OCCO)N1[C@H](c3ccccc3)[C@H](c3ccccc3)OC(=O)[C@H]1[C@@H]2C(=O)N1CCCCCCC1
1.55

State, in one line, measured composite z-score of CO[C@H]1O[C@H](CO)[C@@H](OC(=O)CCc2ccccc2)[C@@H]2OC(=O)[C@H](Cc3cccc(Br)c3)C/C=C/C[C@@H](Cc3cccc(Br)c3)C(=O)O[C@@H]12
-0.752

State, in one line, measured composite z-score of COCCOC(=O)N1C(=O)[C@@]2(c3cc(C#CC4(O)CCCCCC4)ccc31)[C@H](C(=O)N1CCCCCCC1)[C@H]1C(=O)O[C@H](c3ccccc3)[C@H](c3ccccc3)N1[C@@H]2c1ccc(O)cc1
1.08

State, in one line, measured composite z-score of COc1cc(CO)cc(I)c1O[C@H]1C=C(C(=O)NCCO)C[C@@H](N(CC2CCCCC2)C(=O)c2cc3ccccc3oc2=O)[C@@H]1O
0.275

State, in one line, measured composite z-score of COc1ccc([Si](C)(C)[C@H]2[C@H](CCO)O[C@@]3(C(=O)N(Cc4ccccc4)c4ccc(N5C(=O)c6cccc7cccc5c67)cc43)[C@@H]2C)cc1
-0.297

State, in one line, measured composite z-score of C=CCN1C(=O)[C@@]2(O[C@@H](CCn3cc([C@H](O)c4ccccc4)nn3)[C@H]([Si](C)(C)c3ccc(OC)cc3)[C@H]2C)c2cc(N3CCOC3=O)ccc21
-0.192

State, in one line, measured composite z-score of Cc1ccc(S[C@]2(C(=O)O)CC(=O)N(Cc3cc(C(F)(F)F)cc(C(F)(F)F)c3)[C@@H]2c2ccc(CO)cc2I)cc1
-0.89

FYI, the data here is from PubChem BioAssay.
